Numbers sourced from ChEMBL document CHEMBL5154745.

system: Chikungunya virus; assay: Antiviral activity against CHIKV 899 infected in African green monkey Vero cells measured after 7 days; assay type: functional, organism-based; settings: Chikungunya virus, 899, Vero, 168 h
value_type: EC50 (µM)

record_smiles	target_under_test	censoring_sign	observed_result
CC(C)(C)c1ccc2oc(=O)cc(CSc3nc(Nc4cccc5ccccc45)c4ccccc4n3)c2c1	Chikungunya virus	>	193
Cc1ccc(Nc2nc(S)nc3ccccc23)c(C)c1	Chikungunya virus	=	59.4
O=c1cc(CSc2nc(Nc3ccccc3)c3ccccc3n2)c2ccc(O)cc2o1	Chikungunya virus	>	234
Cc1cccc(Nc2nc(S)nc3ccccc23)c1C	Chikungunya virus	=	39.1
COc1ccc(CNc2nc(SCc3cc(=O)oc4ccc(C(C)(C)C)cc34)nc3ccccc23)cc1	Chikungunya virus	=	85.3
Cc1cc(C)nc(Nc2nc(S)nc3ccccc23)c1	Chikungunya virus	>	33.2
Sc1nc(Nc2ccncc2)c2ccccc2n1	Chikungunya virus	=	220
Cc1cc(C)nc(Nc2nc(SCc3cc(=O)oc4ccc(C(C)(C)C)cc34)nc3ccccc23)c1	Chikungunya virus	>	151
Sc1nc(Nc2ccccc2)c2ccccc2n1	Chikungunya virus	=	108
COc1ccc(CNc2nc(S)nc3ccccc23)cc1	Chikungunya virus	=	329
Cc1ccc(Nc2nc(SCc3cc(=O)oc4ccc(C(C)(C)C)cc34)nc3ccccc23)c(C)c1	Chikungunya virus	=	3.11

----------
Entries and their CC50 at 72 h
test: Cytotoxicity against human HEL cells measured after 3 days by coulter counting method; format: toxicity, cell-based; conditions: time 3 day

compound	unit_descriptor	censoring_sign	CC50 at 72 h
COc1ccc(CNc2nc(S)nc3ccccc23)cc1	µM	>	336
Cc1ccc(Nc2nc(S)nc3ccccc23)c(C)c1	µM	=	142
Cc1cccc(Nc2nc(S)nc3ccccc23)c1C	µM	=	131
CC(C)(C)c1ccc2oc(=O)cc(CSc3nc(Nc4ccccc4)c4ccccc4n3)c2c1	µM	=	147
Sc1nc(Nc2ccncc2)c2ccccc2n1	µM	=	242
Cc1ccc(Nc2nc(SCc3cc(=O)oc4ccc(C(C)(C)C)cc34)nc3ccccc23)c(C)c1	µM	=	84.6
Sc1nc(Nc2ccccc2)c2ccccc2n1	µM	=	275
Sc1nc(Nc2cccc3ccccc23)c2ccccc2n1	µM	=	118
COc1ccc(CNc2nc(SCc3cc(=O)oc4ccc(C(C)(C)C)cc34)nc3ccccc23)cc1	µM	>	147
CC(C)(C)c1ccc2oc(=O)cc(CSc3nc(Nc4ccncc4)c4ccccc4n3)c2c1	µM	=	17.3
Cc1cccc(Nc2nc(SCc3cc(=O)oc4ccc(C(C)(C)C)cc34)nc3ccccc23)c1C	µM	=	150
O=c1ccc2ccccc2o1 [COUMARIN]	µM	>	500
COc1ccccc1Nc1nc(SCc2cc(=O)oc3ccc(C(C)(C)C)cc23)nc2ccccc12	µM	=	51.9
COc1ccccc1Nc1nc(S)nc2ccccc12	µM	=	290

----------
test system: Chikungunya virus; test: Antiviral activity against CHIKV 899 infected in African green monkey Vero cells measured after 7 days; format: functional, organism-based; details: Chikungunya virus, 899, Vero, 168 h
Below, each entry is listed with its recorded EC50.
value_type: EC50

record_smiles	target_under_test	observed_result
Cc1ccc2oc(=O)cc(CSc3nc(Nc4ccccc4)c4ccccc4n3)c2c1	Chikungunya virus	> 47 µM
COc1cc2oc(=O)cc(CSc3nc(Nc4ccccc4)c4ccccc4n3)c2cc1OC	Chikungunya virus	> 212 µM
CC(C)(C)c1ccc2oc(=O)cc(CSc3nc(N(Cc4ccccc4)c4ccccc4)c4ccccc4n3)c2c1	Chikungunya virus	> 180 µM
